- Study system: wild type PAN ΔLoop protein (Influenza A virus, UniProt C3W5S0, DEL51-57/DEL61-72/E59G)
- Measurement conditions: read-out: FRET IC50
pIC50: −log10 of the molar value.

- Compound: "O=C(O)C(=O)CC(=O)c1ccccc1 [DPBA, reference compound]"
  pIC50: 7.01
